Below, each entry is listed with its recorded cytotoxicity at 10 µM.
experiment: Toxicity liver stage against HepG2, at 10uM; assay type: cell-based; design: test concentration 10 uM, cell line HepG2-A16-CD81EGFP; details: human, HepG2-A16-CD81EGFP cells; read-out: INHIBITION

COMPOUND | cytotoxicity at 10 µM (%)
NS(=O)(=O)Cc1ccc(CNc2cncc(-n3cccn3)n2)cc1 | 6.1
CN(Cc1ccccc1OC(F)(F)F)C(=O)C1CC1 | 10.8
CN(C)CCCn1ccc(-c2cccc(-c3ccccn3)c2)n1 | -6.02
Cn1nc(C2CC2)c2c1NC(=O)CC2c1ccc(CN2CCCCC2)s1 (stereo not given) | -6.37
CCc1cc(NCCN2CCNC2=O)n2nccc2n1 | -3.04
O=C1CSC(c2ccc(O)c(Cl)c2)c2c(n(C3CCOCC3)[nH]c2=O)N1 (stereo not given) | -3.08
Cc1cc(F)ccc1S(=O)(=O)N1CCN(C)c2ccncc21 | 8.29
O=C(c1cnc2ccc(Cl)cc2c1NCc1ccco1)N1CCCCC1 | 4.38
Cc1cc(C)n(CC2CCCN2C(=O)c2ccnc(N(C)C)c2)n1 (stereo not given) | -16.8
O=C(NCc1nc[nH]n1)c1cc(COc2cccc(F)c2)[nH]n1 | -4.99
CC(C(=O)Nc1cccc(N2CCCCC2)c1)n1cncn1 (stereo not given) | -7.3
CCC(Nc1nccc(C2CCCC2)n1)c1ncccc1C (stereo not given) | -130
O=C1CNc2ncnc(Nc3cnn(Cc4ccc(F)cc4)c3)c2N1 | 6.85
Cc1n[nH]c(C)c1NC(=O)CN1CCCC1c1noc(C(C)C)n1 (stereo not given) | 6.45
Cc1cccc(NC(=O)N2CCOCC(CN(C)C)C2)c1C (stereo not given) | 14.7
C/C(=C\c1ccco1)CN(C)C(C)Cc1ccccn1 (stereo not given) | 1.89
CC(C)c1ccc(-n2cc(O)c(C(=O)N3CCC(C(N)=O)CC3)n2)cc1 | -52.6
Cc1cccc(CC(=O)N2CCCC(N(C)CCCN(C)C)C2)c1 (stereo not given) | -0.655
CC(C)c1nc(C2CCCN2C(=O)c2ccc(N(C)C)nn2)no1 (stereo not given) | -8.11
Cc1ccc(-c2cc(C3=NC(=CN4CCN(C)CC4)NO3)[nH]n2)s1 | -9.45
CCn1cc(CN2CCC(CCC(=O)Nc3ccccc3Cl)CC2)cn1 | -0.99
CO[C@H]1CNC[C@@H]1NC(=O)c1cc(C)nc2c(C)cc(C)cc12 | 4.12
CC(=O)c1cc(CC(=O)NCc2ccc(CN(C)C)cc2)cs1 | -11.3
Cc1cc(Cn2c(=O)c3c(C(F)(F)F)cc(C)nc3n2C)on1 | -0.976
O=C(O)c1cccc(S(=O)(=O)N2CCOc3ccccc32)c1 | -5.92

====

test: Toxicity liver stage against HepG2, at 10uM; assay type: cell-based; parameters: test concentration 10 uM, cell line HepG2-A16-CD81EGFP; details: human, HepG2-A16-CD81EGFP cells; read-out: INHIBITION
Recorded measurements of cytotoxicity at 10 µM, one per entry

MOLECULE | cytotoxicity at 10 µM
Cc1cc(NCc2ccc(S(N)(=O)=O)cc2)nc(C)n1 | -2.08%
Cc1nc(CN2CCN(C)C(=O)C23CCN(C(C)C)CC3)cs1 | 2.33%
CN(C)c1nccc(NCc2cc(-c3cccs3)n[nH]2)n1 | -5.03%
CCc1ncc(CN2CCOC(Cc3cccc(F)c3)C2)cn1 (stereo not drawn) | 0.0753%
CN(C)c1ncc(C(=O)N2C[C@H]3CC(Oc4ccccc4)C[C@H]3C2)cn1 (stereo partly drawn) | 2.54%
CC(C)NC(=O)N1CC(=O)c2sc(NC3CCCCC3)nc2C1 | -7.91%
CCn1ccnc1CN1CCCN(C(=O)Cc2ccccc2C)CC1 | -1.99%
CCOc1ccc2[nH]c(=O)c(CN3CCCCC3C)cc2c1 (stereo not drawn) | -0.895%
Cc1ccc2cc(C(=O)N3CCCC3Cn3cccn3)[nH]c2c1 (stereo not drawn) | -7.39%
Cc1ccc(CNC(=O)NCC(=O)NC(C)(C)C)c(N2CCCC2)c1 | 5.68%
CC[C@H](Cn1ncc2ccccc2c1=O)NC(=O)c1cnc(C)cn1 | 5.98%
CN1C(Cn2cccn2)C[C@@H]2CN(Cc3ccccn3)CC[C@@H]21 (stereo partly drawn) | 0.763%
O=S(=O)(c1ccccc1)N1CCOC(Cn2ccnc2)C1 (stereo not drawn) | 7.77%
CCc1c(C)nc(-n2nc(-c3cccs3)cc2N)[nH]c1=O | -4.47%
CC(C)c1cc(COCCC(=O)O)no1 | -6.5%
O=C(Nc1cccs1)N(CCO)CCOCC(F)(F)F | 3.84%
COCc1ncn2c1CN(C(=O)Nc1cccc(OC)c1)CC2 | 12.7%
c1cc2c(cc1-n1nc(C3CC3)nc1-c1csnn1)OCCO2 | 9.46%
N#Cc1ccc(N2CCC3(CC2)CC(OCc2cccnc2)CO3)cc1 (stereo not drawn) | 38.8%
N#CC1(NC(=O)c2nccc3ccccc23)CCC2(CC1)OCCO2 | 2.48%
COc1ccc(Cl)cc1-n1c(COC(C)C)n[nH]c1=O | -7.5%
CCCN1CCN(Cc2cc(Cl)cc(Cl)c2)[C@H]2CS(=O)(=O)C[C@H]21 | -2.45%
O=C(NCCN1CCOCC1)c1ccc(OCc2ccccc2)nc1 | -5.97%
Cc1c[nH]c(CN(C)c2nc(C3CCCC3)nc3c2cnn3C)n1 | -7.56%
COCCN1C(=O)[C@@H]2CC[C@H]1CN(Cc1nnc(-c3ccccc3)o1)C2 | -4.94%
CN(Cc1cnn(C)c1)S(=O)(=O)N1CCCC1c1ccco1 (stereo not drawn) | -5.78%
Cc1cc(C(=O)N2CCCC3(CN(C)C(=O)O3)C2)c2ccc(F)cc2n1 (stereo not drawn) | 3.05%
CC(C)(C)CC(=O)NCC(=O)Nc1ccn(CCCn2ccnc2)n1 | 10.6%
CCC1CCC(N(Cc2cc(=O)n(C)c(=O)n2C)C2CC2)CC1 (stereo not drawn) | 22.6%
COc1cc(C(C)=O)ccc1OCCNCc1ccco1 | -5.05%
COc1ccc(-n2cccn2)c(CN2CCC3(CCNCC3)C2)c1 | 0.0652%
CC(C)c1nc(CC(=O)N2CCN(C)CC2c2ccccc2)cs1 (stereo not drawn) | -12.6%
Cc1cc(N2CCC(NC(C)Cc3ccsc3)CC2)nc(C)n1 (stereo not drawn) | -7.73%
